The reported measurements were obtained from PubChem BioAssay AID504653.

# Tested on: SW403 caspase-3/7 Glo luminescence, 7 h
# procedure_details: apoptosis induction by VCP inhibitors – cell-based, mechanism study for p97 inhibitor project (AID 504653)
The source made the active and inactive calls.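 Rule for the calls: active = caspase 3/7 peak fold activation above 5 at a dose under 20 µM within 7 h; inactive = the rest.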
Select the correct class. Options are label 1 for active, label 0 for inactive and nothing else.

given_smiles: COc1cccc2c(NCc3ccccc3)nc(NCc3ccccc3)nc12
answer_label: label 0

given_smiles: Fc1cccc(Nc2nc(NCc3ccccc3)c3ccccc3n2)c1
answer_label: label 0

given_smiles: Brc1cccc(CNc2nc(NCc3ccccc3)c3ccccc3n2)c1
answer_label: label 1

given_smiles: COc1cccc2c(NCc3ccccc3)nc(-n3c(N)nc4cc(Cl)c(Cl)cc43)nc12
answer_label: label 0

given_smiles: c1ccc(CNc2nc(N3CCOc4ccccc43)nc3ccccc23)cc1
answer_label: label 0

Asked: Name the outcome recorded for "FC(F)(F)c1ccc(CNc2nc(NCc3ccccc3)c3ccccc3n2)cc1" in the assay.
Given back: label 1

Asked: Name the outcome recorded for "COc1cccc2c(NCc3ccccc3)nc(-n3c(N)nc4ccccc43)nc12" in the assay.
Given back: label 1

Asked: Name the outcome recorded for "Cc1ccc(CNc2nc(NCc3ccccc3)c3ccccc3n2)cc1" in the assay.
Given back: label 0

Asked: Name the outcome recorded for "Clc1cccc(Nc2nc(NCc3ccccc3)c3ccccc3n2)c1" in the assay.
Given back: label 0

Asked: Name the outcome recorded for "CCN(CC)CCOc1cccc2c(NCc3ccccc3)nc(N3CCOc4ccccc43)nc12" in the assay.
Given back: label 0

Asked: Name the outcome recorded for "COc1cccc2c(NCc3ccccc3)nc(N3CCOc4ccccc43)nc12" in the assay.
Given back: label 0

Asked: Name the outcome recorded for "COc1cccc2c(NCc3ccccc3)nc(Nc3nc4ccccc4n3C)nc12" in the assay.
Given back: label 1
